- experimental_system: PIM1 serine/threonine kinase (Homo sapiens, UniProt P11309)
- Sequence (P11309 whole entry): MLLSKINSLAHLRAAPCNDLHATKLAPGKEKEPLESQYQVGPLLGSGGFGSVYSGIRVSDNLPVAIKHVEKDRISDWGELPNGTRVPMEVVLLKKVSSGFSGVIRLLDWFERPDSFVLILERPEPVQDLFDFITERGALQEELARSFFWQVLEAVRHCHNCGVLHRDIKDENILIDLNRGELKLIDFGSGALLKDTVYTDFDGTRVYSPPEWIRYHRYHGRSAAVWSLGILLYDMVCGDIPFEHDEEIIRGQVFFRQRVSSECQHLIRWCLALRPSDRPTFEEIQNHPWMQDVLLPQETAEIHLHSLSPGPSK
- test_method_notes: PIM1 serine/threonine kinase inhibitory effect
- measurement_conditions: PIM1 serine/threonine kinase activity; ATP 40 μM; 30° C., 30 minutes
Counter-ions that a name gives are not always drawn.
Each entry below carries its reported pIC50.
// pIC50: -log10(molar conc.)

Consider the following illustrative entries.
O=c1[nH]nc(-c2cc(F)c(C(F)(F)F)c(NCC3(F)CCNCC3)c2)o1 [Example 129, hydrochloride]; 8.09
N[C@H]1CC[C@H](Nc2cc(-c3n[nH]c(=O)o3)cc(F)c2Cl)CC1 [Example 40, hydrochloride]; 8.21
O=c1[nH]nc(-c2ccc(C(F)(F)F)c(NC[C@H]3CCCNC3)c2)o1 [Example 53, hydrochloride]; 7.82
NCCC1CCN(c2cc(-c3n[nH]c(=O)o3)ccc2C(F)(F)F)CC1 [Example 10, hydrochloride]; 8.18
C[C@H](Nc1cc(-c2n[nH]c(=O)o2)ccc1C(F)(F)F)C1CC2(CCNCC2)C1 [Example 142, hydrochloride]; 7.96

Kindly review the next compound as well.
Lookup: pIC50 / PIM1 serine/threonine kinase (Homo sapiens, UniProt P11309) / O=c1[nH]nc(-c2ccc(C(F)(F)F)c(NCC3C4CCC3CNC4)c2)o1 (stereo not drawn) [Example 133, hydrochloride] 8.10
